Experiment: Human HepG2 cell viability assay in 384 well format
Type: toxicity, cell-based
Parameters: dose 125 nL, time 70.5 hour; concentration not given beside the values
Settings: HepG2 cells, read-out: Inhibition
List of cytotoxicity at 70.5 h values.
METRIC NAME: cytotoxicity at 70.5 h (%)

# MOLECULE, METRIC NAME, OBS VALUE
measured = [
    ("O=C(CC1CC1)N1CCO[C@H]2[C@H](OCCCn3cccn3)CC[C@@H]21", "cytotoxicity at 70.5 h", -4.17),
    ("c1ccc(C(CNc2ncccn2)N2CCOCC2)nc1 (stereo not drawn)", "cytotoxicity at 70.5 h", -1.54),
    ("c1cncc(CN2CCC3(CCCN(c4nncs4)C3)C2)c1 (stereo not drawn)", "cytotoxicity at 70.5 h", -7.53),
    ("CS(=O)(=O)N1CCC(NC(=O)COc2ccc(Br)cc2Cl)CC1", "cytotoxicity at 70.5 h", 30.2),
    ("CC(C)(C)OC(=O)NCC1CCCCN1Cc1cccc(C(N)=O)c1 (stereo not drawn)", "cytotoxicity at 70.5 h", 1.21),
    ("CC(C(=O)O)N1CC2(CCC1=O)CCN(CCc1ccccc1)CC2 (stereo not drawn)", "cytotoxicity at 70.5 h", -11),
    ("O=C(Cc1cccnc1)NC1CCCN(CCCc2ccccc2)C1 (stereo not drawn)", "cytotoxicity at 70.5 h", -8.8),
    ("CCN(CC)CCCC(C)NC(=O)c1cccnc1-n1cccn1 (stereo not drawn)", "cytotoxicity at 70.5 h", 3.18),
    ("CN(CCc1ccccn1)Cc1nccn1Cc1ccccc1", "cytotoxicity at 70.5 h", 11.8),
    ("Cn1nc(C2CCN(C(=O)c3cnccn3)C2)cc1CCO (stereo not drawn)", "cytotoxicity at 70.5 h", -2.35),
    ("CC(=O)NCCC1CCCCN1S(=O)(=O)c1cccc(C#N)c1 (stereo not drawn)", "cytotoxicity at 70.5 h", -2.49),
    ("C[C@H]1C[C@H]2CN(C(=O)c3cccc4c3OCCO4)CC[C@H]2O1", "cytotoxicity at 70.5 h", 32.2),
    ("Cc1ncnc(N2CCCN(c3nc4ccccc4s3)CC2)c1C", "cytotoxicity at 70.5 h", 7.7),
    ("CSCCC(Nc1nc(C)cc(C)n1)C(=O)NCC1CCOCC1 (stereo not drawn)", "cytotoxicity at 70.5 h", -8.81),
    ("Cc1cc(CN(C)CC2(O)CCCN(CCC3CCCCC3)C2=O)no1 (stereo not drawn)", "cytotoxicity at 70.5 h", 48.7),
    ("COc1ccc(C(=O)N2C[C@@H](O)[C@H](NCc3ncccc3C)C2)cc1", "cytotoxicity at 70.5 h", -8.03),
    ("CCN(CC(C)C#N)C(=O)CSc1ccc(C(F)(F)F)cn1 (stereo not drawn)", "cytotoxicity at 70.5 h", -3.1),
    ("CCc1nccn1C1CCCN(C(=O)CCOCC(F)(F)F)C1 (stereo not drawn)", "cytotoxicity at 70.5 h", -14),
    ("N#Cc1ccc(N2CCCC3(CCC(=O)N3CC3CC3)CC2)nc1 (stereo not drawn)", "cytotoxicity at 70.5 h", -0.642),
    ("COc1cc(C(=O)N2CC(Oc3ccccc3Cl)C2)ccn1", "cytotoxicity at 70.5 h", -3.47),
    ("CCC(C)(C)C(=O)N1CCN(C2=NCC(C)S2)CC1 (stereo not drawn)", "cytotoxicity at 70.5 h", -8.95),
    ("O=C([C@@H]1COC[C@H]2CN(C3CCCCC3)C[C@H]21)N1CCOCC1", "cytotoxicity at 70.5 h", -9.47),
    ("Cc1ccc(-c2cn[nH]c2C2CCCN(c3ncccn3)C2)cc1 (stereo not drawn)", "cytotoxicity at 70.5 h", 22.7),
]
